Tested on: MGC-803
Assay: Antiproliferative activity against human MGC803 cells after 72 hrs by MTT assay
Format: functional, cell-based
Settings: MGC-803, 72 h
pIC50: −log10 of the molar value.
Would you please tag the item Condition met when its pIC50 is 5 or above, and Condition not met when it is below?

>  <structure-smiles-string>
O=C(N/N=C/c1cc(Br)cc(Br)c1O)c1cccc(S(=O)(=O)N2CCOCC2)c1

>  <assigned-label>
Condition not met

$$$$
>  <structure-smiles-string>
C/C(=N\NC(=O)c1cccc(S(=O)(=O)N2CCOCC2)c1)c1ccc(O)cc1

>  <assigned-label>
Condition not met

$$$$
>  <structure-smiles-string>
O=C(N/N=C/c1cccs1)c1cccc(S(=O)(=O)N2CCOCC2)c1

>  <assigned-label>
Condition not met

$$$$
>  <structure-smiles-string>
O=C(N/N=C/c1ccccc1O)c1cccc(S(=O)(=O)N2CCOCC2)c1

>  <assigned-label>
Condition not met

$$$$
>  <structure-smiles-string>
CCOc1cccc(/C=N/NC(=O)c2cccc(S(=O)(=O)N3CCOCC3)c2)c1O

>  <assigned-label>
Condition not met

$$$$
>  <structure-smiles-string>
C/C(=N\NC(=O)c1cccc(S(=O)(=O)N2CCOCC2)c1)c1cc(F)ccc1O

>  <assigned-label>
Condition met

$$$$
>  <structure-smiles-string>
O=C(N/N=C/c1cc(Br)ccc1O)c1cccc(S(=O)(=O)N2CCOCC2)c1

>  <assigned-label>
Condition not met

$$$$
>  <structure-smiles-string>
O=C(N/N=C/c1ccco1)c1cccc(S(=O)(=O)N2CCOCC2)c1

>  <assigned-label>
Condition not met

$$$$
>  <structure-smiles-string>
CCN(CC)c1ccc(/C=N/NC(=O)c2cccc(S(=O)(=O)N3CCOCC3)c2)c(O)c1

>  <assigned-label>
Condition met

$$$$
>  <structure-smiles-string>
C/C(=N\NC(=O)c1cccc(S(=O)(=O)N2CCOCC2)c1)c1cccc(N)c1O

>  <assigned-label>
Condition met

$$$$
>  <structure-smiles-string>
C/C(=N\NC(=O)c1cccc(S(=O)(=O)N2CCOCC2)c1)c1cccc(O)c1

>  <assigned-label>
Condition not met

$$$$
>  <structure-smiles-string>
C/C(=N\NC(=O)c1cccc(S(=O)(=O)N2CCOCC2)c1)c1ccccc1O

>  <assigned-label>
Condition met

$$$$
>  <structure-smiles-string>
COc1ccc(/C=N/NC(=O)c2cccc(S(=O)(=O)N3CCOCC3)c2)c(O)c1

>  <assigned-label>
Condition met

$$$$
>  <structure-smiles-string>
C/C(=N\NC(=O)c1cccc(S(=O)(=O)N2CCOCC2)c1)c1cc(Br)ccc1O

>  <assigned-label>
Condition not met

$$$$
>  <structure-smiles-string>
C/C(=N\NC(=O)c1cccc(S(=O)(=O)N2CCOCC2)c1)c1cccc(N)c1

>  <assigned-label>
Condition not met

$$$$
>  <structure-smiles-string>
C/C(=N\NC(=O)c1cccc(S(=O)(=O)N2CCOCC2)c1)c1ccccc1

>  <assigned-label>
Condition not met

$$$$
>  <structure-smiles-string>
C/C(=N\NC(=O)c1cccc(S(=O)(=O)N2CCOCC2)c1)c1ccc(F)cc1

>  <assigned-label>
Condition not met

$$$$
>  <structure-smiles-string>
O=C(N/N=C/c1ccccn1)c1cccc(S(=O)(=O)N2CCOCC2)c1

>  <assigned-label>
Condition not met

$$$$
